biological target: T1, CC128 variant of CD117 (Y259C + N260D) purified protein (human, UniProt P10721 26-520, limits assumed); assay: binding kinetics grade, FIGS. 55A-55C
T1 construct: also called CC128-edited CD117 as purified protein
T1 sequence (P10721 26-520 Y259C/N260D limits assumed): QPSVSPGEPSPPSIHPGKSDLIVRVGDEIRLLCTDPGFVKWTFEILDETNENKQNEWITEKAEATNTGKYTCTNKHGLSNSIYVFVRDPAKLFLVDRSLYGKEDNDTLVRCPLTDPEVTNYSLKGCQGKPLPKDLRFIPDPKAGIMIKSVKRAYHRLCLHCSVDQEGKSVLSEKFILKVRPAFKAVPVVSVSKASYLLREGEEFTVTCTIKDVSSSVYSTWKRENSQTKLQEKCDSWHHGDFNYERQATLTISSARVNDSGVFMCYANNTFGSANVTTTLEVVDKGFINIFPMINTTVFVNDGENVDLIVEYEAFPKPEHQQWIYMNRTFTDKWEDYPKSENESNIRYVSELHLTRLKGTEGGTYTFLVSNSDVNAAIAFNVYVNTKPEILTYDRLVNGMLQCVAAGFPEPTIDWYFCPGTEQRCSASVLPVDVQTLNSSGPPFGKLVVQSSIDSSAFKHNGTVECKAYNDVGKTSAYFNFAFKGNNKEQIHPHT

# binder, binding result
records = [
    ("ABTx267 (antibody, human IgG1, kappa, V domains shown) VH: QVQLVQSGAAVKKPGESLKISCKGSGYRFTSYWIGWVRQMPGKGLEWMGIIYPGDSDTKYSPSFQGQVTISAGKSISTAYLQWSSLKASDTAMYYCARHGRGYDAYDGAFDIWGQGTMVTVSS VL: AIQLTQSPSSLSASVGDRVTITCRASQGISSALAWYQQKPGKAPKLLIYDASSLESGVPSRFSGSGSGTDFTLTISSLQPEDFATYYCQQTNSSPLTFGGGTKVEIKR", "no binding"),
    ("ABTx251 (antibody, human IgG1, kappa, V domains shown) VH: QVQLVQSGAAVKKPGESLKISCKGSGYRFTSYWIGWVRQMPGKGLEWMGIIYPGDSDTRYSPSFQGQVTISAGKSISTAYLQWSSLKASDTAMYYCARHGRGYDGYEGAFDIWGQGTMVTVSS VL: AIQLTQSPSSLSASVGDRVTITCRASQGISSALAWYQQKPGKAPKLLIYDASSLESGVPSRFSGSGSGTDFTLTISSLQPEDFATYYCQQFYSYPLTFGGGTKVEIKR", "no binding"),
]
